Numbers sourced from patent US20210317134A1.

USP7 (Homo sapiens, UniProt Q93009): reported IC50 for various molecules.
Sequence (Q93009 whole entry): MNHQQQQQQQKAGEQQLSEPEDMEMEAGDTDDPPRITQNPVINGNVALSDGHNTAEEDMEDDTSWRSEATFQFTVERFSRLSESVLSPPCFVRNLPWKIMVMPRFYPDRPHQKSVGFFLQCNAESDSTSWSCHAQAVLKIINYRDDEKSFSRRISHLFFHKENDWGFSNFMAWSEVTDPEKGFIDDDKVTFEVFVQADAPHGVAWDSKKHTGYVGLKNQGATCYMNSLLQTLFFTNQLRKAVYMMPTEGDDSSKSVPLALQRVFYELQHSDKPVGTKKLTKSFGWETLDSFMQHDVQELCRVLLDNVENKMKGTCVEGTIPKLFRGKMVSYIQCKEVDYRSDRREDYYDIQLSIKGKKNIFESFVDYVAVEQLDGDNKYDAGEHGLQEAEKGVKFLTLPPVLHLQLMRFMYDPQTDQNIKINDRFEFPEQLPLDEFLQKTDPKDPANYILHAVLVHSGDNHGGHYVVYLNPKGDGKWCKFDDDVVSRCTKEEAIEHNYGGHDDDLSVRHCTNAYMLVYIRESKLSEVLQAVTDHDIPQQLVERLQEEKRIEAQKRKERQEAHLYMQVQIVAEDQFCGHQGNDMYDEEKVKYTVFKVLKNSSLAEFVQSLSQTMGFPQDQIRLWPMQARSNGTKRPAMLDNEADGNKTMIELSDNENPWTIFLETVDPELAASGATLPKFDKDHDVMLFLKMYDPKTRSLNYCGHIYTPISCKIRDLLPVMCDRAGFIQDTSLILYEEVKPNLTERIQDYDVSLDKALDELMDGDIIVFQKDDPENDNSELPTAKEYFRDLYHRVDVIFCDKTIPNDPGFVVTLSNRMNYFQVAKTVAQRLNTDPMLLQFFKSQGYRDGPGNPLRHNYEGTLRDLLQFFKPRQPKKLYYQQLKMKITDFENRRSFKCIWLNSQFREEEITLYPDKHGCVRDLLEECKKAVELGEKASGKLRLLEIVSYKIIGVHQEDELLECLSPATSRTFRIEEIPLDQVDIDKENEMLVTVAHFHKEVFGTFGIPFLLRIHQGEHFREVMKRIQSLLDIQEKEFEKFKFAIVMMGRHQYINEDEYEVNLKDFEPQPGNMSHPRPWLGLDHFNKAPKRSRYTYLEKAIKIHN
measurementLabel: IC50

molecule	resultValue
C=CCC1(C(=O)N2CCNCC2)Cc2cc(Cl)cc(-c3ccnc4[nH]ccc34)c2O1 (stereo not drawn)	10000 to 30000 nM
O=C([C@H]1Cc2cc(Cl)cc(-c3ccnc4cc(CN5C(=O)CCNC5=O)sc34)c2O1)N1CCNCC1	< 1000 nM
CCC(O)c1cc2ncnc(-c3cc(Cl)cc4c3O[C@@H](c3onc5c3CNCC5)C4)c2s1 (stereo partly drawn) [drawing 1596]	< 1000 nM
CCN1CCc2noc([C@H]3Cc4cc(Cl)cc(-c5ccnc6ccsc56)c4O3)c2C1	< 1000 nM
O=C1CCC(=O)N1Cc1cc2ncnc(-c3cc(Cl)cc4c3O[C@@H](c3onc5c3CNCC5)C4)c2o1	< 1000 nM
O=C(C1Cc2cc(Cl)cc(-c3ccnc4[nH]ccc34)c2O1)N1CCC(O)(c2cccnc2)CC1 (stereo not drawn)	< 1000 nM
O=C([C@H]1Cc2cc(Cl)cc(-c3ccnc4cc(C(O)(CO)CCl)sc34)c2O1)N1CCNCC1 (stereo partly drawn)	< 1000 nM
O[C@]1(c2cc3nccc(-c4cc(Cl)cc5c4O[C@@H](c4onc6c4CNCC6)C5)c3s2)CCOC1	< 1000 nM
O=C1CCC(=O)N1Cc1cc2ncnc(-c3cc(Cl)cc4c3O[C@@H](c3onc5c3CNCC5)C4)c2s1	< 1000 nM
CC1(CO)Cc2nccc(-c3cc(Cl)cc4c3O[C@@H](C(=O)N3CCNCC3)C4)c2C1 (stereo partly drawn)	< 1000 nM
CC(=O)NC(C)c1cc2nccc(-c3cc(Cl)cc4c3O[C@@H](C(=O)N3CCNCC3)C4)c2s1 (stereo partly drawn)	< 1000 nM
OCc1cc2nccc(-c3cc(Cl)cc4c3OC(c3nnn5c3CNCC5)C4)c2s1 (stereo not drawn)	1000 to 10000 nM
O=C(C1Cc2cc(Cl)cc(-c3ccnc4[nH]ccc34)c2O1)N1CCC(O)(c2ccccc2)CC1 (stereo not drawn)	1000 to 10000 nM
OC1(c2cc3nccc(-c4cc(Cl)cc5c4O[C@@H](c4onc6c4CNCC6)C5)c3s2)CNC1	1000 to 10000 nM
O=C(C1Cc2cc(Cl)cc(-c3ccnc4ccc(F)cc34)c2O1)N1CCNCC1 (stereo not drawn)	1000 to 10000 nM
CCC(O)c1cc2nccc(-c3cc(Cl)cc4c3O[C@@H](c3ocnc3CN(C)C)C4)c2s1 (stereo partly drawn)	< 1000 nM
N#CCC(O)c1cc2nccc(-c3cc(Cl)cc4c3O[C@@H](C(=O)N3CCNCC3)C4)c2s1 (stereo partly drawn)	< 1000 nM
NC(=O)c1c[nH]c2nccc(-c3cc(Cl)cc4c3OC(C(=O)N3CCNCC3)C4)c12 (stereo not drawn)	1000 to 10000 nM
